Data origin: the MegaScale stability set (Tsuboyama et al. 2023)

B1: HHH_rd1_0493 (parent)
chain: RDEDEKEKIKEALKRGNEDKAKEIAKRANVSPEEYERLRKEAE

- Variants of: B1
- Protocol Text: folding stability dG (cDNA display proteolysis); higher = more stable
- Condition Parameters: PBS, room temperature
Parameter: folding stability dG (kcal/mol)
Kindly answer with a numeric value in kcal/mol, unit omitted.

Some variants with known folding stability dG results, for comparison:
Change: Y35K
Result Units: kcal/mol
folding stability dG: 0.009

Change: D2Q
Result Units: kcal/mol
folding stability dG: 3.15

Change: N17Y
Result Units: kcal/mol
folding stability dG: 2.75

Change: R37M
Result Units: kcal/mol
folding stability dG: 2.49

Change: D4Q
Result Units: kcal/mol
folding stability dG: 2.88

Change: K8D
Result Units: kcal/mol
folding stability dG: 2.25

Change: D4E
Result Units: kcal/mol
folding stability dG: 2.98

Change: G16S
Result Units: kcal/mol
folding stability dG: 1.29

Please report the recorded folding stability dG for "K14E" .
1.75

Quick check: folding stability dG of "E18M" ?
2.74

Find the recorded folding stability dG belonging to "E23M" and report it.
2.33

What value of folding stability dG has been recorded for this entry: "A28E"
1.96

I would be grateful if you could share the reported folding stability dG for "E5K" .
2.24

Item "Y35I" has what recorded folding stability dG?
1.39

Fill blank: measured folding stability dG of the variant "E18S" is ____.
2.47

Which folding stability dG value belongs to "K8R" ?
3

Report folding stability dG for "K40V" please.
3.01

Would you kindly share the measured folding stability dG for "V30P" ?
0.301

Give the measured folding stability dG of "Y35S" .
0.291

So what's the measured folding stability dG for this one? "A25I"
0.742

Given the entry "E7S" , report its measured folding stability dG.
2.92

Item under review: "A21S" . Reported folding stability dG?
1.11

What does the record list as folding stability dG for "E34Y" ?
0.926

For the variant shown here, "K20W" , give the reported folding stability dG.
3.02

For the variant "S31R" , what folding stability dG is on record?
1.87

Query: folding stability dG; subject: "L38Y"
1.85

Could you tell me which folding stability dG is on file for "V30C" ?
1.69

// folding stability dG lookup, key: "R27V"
2.42
